System: histone deacetylase
Assay: in vitro inhibition of histone deacetylase by HDAC inhibitor screening kit (Biovision K340-100)
Format: biochemical
Settings: 2 mM
Threshold check on Inhibition rate(%): at or above 70% gives YES, strictly below gives NO.

Exercise: Entry COc1cc(COC(=O)NCc2ccc(C(=O)Nc3ccncc3N)cc2)cc(OC)c1OC [V-14] : is its Inhibition rate(%) no less than 70%?
Key: YES

Exercise: Is it the case that COc1cc(CCC(=O)NCc2ccc(C(=O)Nc3cccnc3N)cc2)cc(OC)c1OC [V-54] has Inhibition rate(%) reaching or exceeding 70%?
Key: NO

Exercise: Item Cc1ccc(COC(=O)NCc2ccc(C(=O)Nc3cccnc3N)cc2)cc1 [V-9] with Inhibition rate(%) of 70% or above?
Key: NO

Exercise: hey, is Inhibition rate(%) for this one >= 70%? Nc1ncccc1NC(=O)c1ccc(CNC(=O)OCc2ccccc2)cc1 [V-8]
Key: NO

Exercise: Decide: is the reported value of Inhibition rate(%) for COc1cccc(/C=C/C(=O)NCc2ccc(C(=O)Nc3cccnc3N)cc2)c1 [V-91] equal to or greater than 70%?
Key: YES

Exercise: Hi team, for Cc1ccc(/C=C/C(=O)NCc2ccc(C(=O)Nc3ccncc3N)cc2)cc1 [V-28] , is the recorded Inhibition rate(%) at or above 70%?
Key: NO

Exercise: In plain terms: is recorded Inhibition rate(%) at least 70% for Nc1ncccc1NC(=O)c1ccc(CNC(=O)OCc2cccnc2)cc1 [V-4] ?
Key: NO

Exercise: Item Nc1ncccc1NC(=O)c1ccc(CNC(=O)/C=C/c2cccnc2)cc1 [V-42] with Inhibition rate(%) of 70% or above?
Key: YES
